measurement-target: Fuc(a1-2)Gal(b1-3)[Fuc(a1-4)]GlcNAc(b1-2)Man(a1-3)[Fuc(a1-2)Gal(b1-3)[Fuc(a1-4)]GlcNAc(b1-2)Man(a1-6)]Man(b1-4)GlcNAc(b1-4)[Fuc(a1-6)]GlcNAc(b1-4)[Fuc(a1-6)]GlcNAc
assay-summary: glycan array binding signal (z-score within array); higher = stronger binding
measurement-parameters: glycan notation: IUPAC condensed, linker removed
Only a selection was taken, and the strongest signals are over-represented in it overall.
measured-endpoint: glycan array binding signal (z-score)

1) Clone730PsrP (Streptococcus pneumoniae) (protein) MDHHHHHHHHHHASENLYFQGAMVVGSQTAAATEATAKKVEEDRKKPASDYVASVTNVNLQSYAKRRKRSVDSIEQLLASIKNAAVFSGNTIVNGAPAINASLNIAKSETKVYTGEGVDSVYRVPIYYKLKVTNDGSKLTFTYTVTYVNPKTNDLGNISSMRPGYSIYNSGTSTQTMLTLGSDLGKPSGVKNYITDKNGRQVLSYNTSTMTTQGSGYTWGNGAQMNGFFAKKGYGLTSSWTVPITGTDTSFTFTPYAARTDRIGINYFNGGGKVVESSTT
-0.364
2) SJCP1084 (Schistosoma japonicum) (protein) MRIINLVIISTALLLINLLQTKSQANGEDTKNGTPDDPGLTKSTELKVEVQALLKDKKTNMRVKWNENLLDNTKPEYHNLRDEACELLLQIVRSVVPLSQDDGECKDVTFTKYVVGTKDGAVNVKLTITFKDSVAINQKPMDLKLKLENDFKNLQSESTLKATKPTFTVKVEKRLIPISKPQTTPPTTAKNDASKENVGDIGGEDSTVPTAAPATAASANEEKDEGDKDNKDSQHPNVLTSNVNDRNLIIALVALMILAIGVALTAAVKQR
-0.159
3) Pwp2 (Candida glabrata) (protein) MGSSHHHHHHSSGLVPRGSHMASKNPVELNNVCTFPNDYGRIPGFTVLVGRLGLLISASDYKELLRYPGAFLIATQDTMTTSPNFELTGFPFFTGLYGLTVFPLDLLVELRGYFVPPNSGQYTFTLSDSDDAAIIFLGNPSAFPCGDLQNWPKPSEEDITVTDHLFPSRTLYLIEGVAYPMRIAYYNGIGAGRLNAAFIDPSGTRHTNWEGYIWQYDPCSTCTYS
6.32
